- test: gradient 5% acetonitrile 3 min, to 50% in 2 min, to 85% in 15 min, held 3 min, 100 µL/min
- experimental-setup: column: Zorbax Extend-C18 2.1 x 50 mm; eluents: water / acetonitrile, 0.1% formic acid
Categorize each record by its RP-LC retention time using group A = under 800 s, group B = from 800 s up to 900 s, group C = 900 s and over

{"compound": "O=C(COc1ccccc1)N1CCC(c2noc(-c3ccncc3)n2)C1 (centres undefined)", "label-value": "group A"}
{"compound": "COc1ccc(CNC2=NCCNC23CCN(S(=O)(=O)c2c(C)cc(C)cc2C)CC3)cc1", "label-value": "group B"}
{"compound": "Cn1nc(-c2nc(-c3cccc(F)c3)no2)c2c1CCN(C(=O)NC1CCCC1)C2", "label-value": "group C"}
{"compound": "Cc1cc(NS(=O)(=O)c2ccc(-c3nnc(C4CCC4)o3)o2)ccc1F", "label-value": "group C"}
{"compound": "CC(C)CCNC(=O)C1(C)CN(S(=O)(=O)c2ccccc2)CC(=O)N1Cc1ccc(F)cc1 (centres undefined)", "label-value": "group C"}
{"compound": "O=C(NC(Cc1ccccc1)c1nnc(N2CCCCC2)o1)c1ccco1 (centres undefined)", "label-value": "group A"}
{"compound": "COCCCNC(=O)C1CCCN(c2ncnc3c2nc2n3CCCCC2)C1 (centres undefined)", "label-value": "group A"}
{"compound": "COC(=O)c1cnc2nc(C)ccc2c1NCc1ccccc1", "label-value": "group A"}
{"compound": "CCc1ccc(NC(=O)N2CCC(n3cnc4ccc(C)cc4c3=O)CC2)cc1", "label-value": "group B"}
{"compound": "Cc1ccc(Cl)cc1NC(=O)N1CCC(n2c(-c3ccco3)nc3cccnc32)C1 (centres undefined)", "label-value": "group B"}
{"compound": "Cc1ccnc(NS(=O)(=O)c2ccc(NC(=O)c3ccc(-n4cccn4)nn3)cc2)n1", "label-value": "group A"}
{"compound": "Cc1cc(C)cc(-c2nc(C3CC(=O)N(c4ccc(F)c(Cl)c4)C3)no2)c1 (centres undefined)", "label-value": "group C"}
{"compound": "CCCN1CCC[C@@H](c2cccc(O)c2)C1", "label-value": "group A"}
{"compound": "O=C(c1ccc(F)c(F)c1)N1CCCC1c1nc(-c2ccccc2Cl)no1 (centres undefined)", "label-value": "group C"}
{"compound": "CCc1ccc(-n2nnc(C(=O)N3CCCCC3C)c2-c2cccnc2)cc1 (centres undefined)", "label-value": "group B"}
